The measured values listed here are drawn from patent US10508099B2.

Provide the recorded EC50 for the entries that follow.
Tested on: SW480 colon carcinoma cells
Assay: Cell viability assay (CellTiter-Glo) in SW480 cells
Type: cell-based, human
Details: Homo sapiens, 96 h, four days incubation
Entry rule: numbers only, all in nM.

QUERY: What measured EC50 is associated with CN1CCN(C[C@H]2CC[C@H](C(=O)Nc3cc4cc(-c5cnco5)ccc4cn3)CC2)CC1 on SW480 colon carcinoma cells?
RESULT: 922

QUERY: What measured EC50 is associated with Cn1cc(-c2ccc3cnc(NC(=O)C4CCN(CC(C)(C)O)CC4)cc3c2)nn1 on SW480 colon carcinoma cells?
RESULT: 8390

QUERY: What measured EC50 is associated with C[C@H](F)CN1CCC(C(=O)Nc2cc3cc(-c4cnn(C)c4)ccc3cn2)CC1 on SW480 colon carcinoma cells?
RESULT: 751
